These measurements were taken from patent US7534781B2.

# MEASUREMENT PROTOCOL: Bulk density according to USP 24, method I
# Format: physicochemical
# ASSAY SETUP: trihydrate

{"columns": ["COMPOUND", "MEASURE UNIT", "Bulk dens. (db)"],
 "data": [
  ["CC1(C)S[C@@H]2[C@H](NC(=O)[C@H](N)c3ccc(O)cc3)C(=O)N2[C@H]1C(=O)O.O.O.O [Ex. V, amoxicillin trihydrate]", "g/mL", 0.58],
  ["CC1(C)S[C@@H]2[C@H](NC(=O)[C@H](N)c3ccc(O)cc3)C(=O)N2[C@H]1C(=O)O.O.O.O [Ex. II, amoxicillin trihydrate]", "g/mL", 0.56],
  ["CC1(C)S[C@@H]2[C@H](NC(=O)[C@H](N)c3ccc(O)cc3)C(=O)N2[C@H]1C(=O)O.O.O.O [Ref. B, amoxicillin trihydrate, reference compound]", "g/mL", 0.26],
  ["CC1(C)S[C@@H]2[C@H](NC(=O)[C@H](N)c3ccc(O)cc3)C(=O)N2[C@H]1C(=O)O.O.O.O [Comp. A, amoxicillin trihydrate, reference compound]", "g/mL", 0.26],
  ["CC1(C)S[C@@H]2[C@H](NC(=O)[C@H](N)c3ccc(O)cc3)C(=O)N2[C@H]1C(=O)O.O.O.O [Ex. III, amoxicillin trihydrate]", "g/mL", 0.56],
  ["CC1(C)S[C@@H]2[C@H](NC(=O)[C@H](N)c3ccc(O)cc3)C(=O)N2[C@H]1C(=O)O.O.O.O [Ex. IV, amoxicillin trihydrate]", "g/mL", 0.54],
  ["CC1(C)S[C@@H]2[C@H](NC(=O)[C@H](N)c3ccc(O)cc3)C(=O)N2[C@H]1C(=O)O.O.O.O [Ex. I, amoxicillin trihydrate]", "g/mL", 0.51],
  ["CC1(C)S[C@@H]2[C@H](NC(=O)[C@H](N)c3ccc(O)cc3)C(=O)N2[C@H]1C(=O)O.O.O.O [Ex. VI, amoxicillin trihydrate]", "g/mL", 0.59]
]}
